Every entry's value here was drawn from ChEMBL document CHEMBL1201862.

System: EKVX
Assay: NCI tumour cell line growth inhibition, 48 h
Calls of active or inactive are those of the source. Cut-off read from the data, not from the text of the source: active = GI50 up to about 1.1 µM and inactive = higher.
Log the outcome using a class from T = active, F = inactive

Solved cases below.
CCOC(=O)C(=O)Nc1cc(Cl)c(Cl)cc1Cl; F
CCOCc1cc(=O)c2cc3c(cc2o1)OC(C)(C)CC3; F
CC(=O)O[C@H]1CC[C@@]2(C)C(=CC[C@@H]3[C@@H]2CC[C@]2(C)c4nc(Cl)ccc4C[C@@H]32)C1; F
NC(CCC(=O)Nc1ccc(O)cc1)C(=O)O (centres undefined); F
C=C1C(=O)O[C@H]2[C@@H](O)[C@H](C)CCC/C(C)=C/CC[C@@]3(C)O[C@@H]3C[C@@H]12; F

Here is another compound to look at.
[Q] Tell me the recorded outcome of this test for Cc1cc(S(=O)(=O)Nc2cc(N)n[nH]2)c(SCc2nc(N)nc(N(C)C)n2)cc1Cl .
[A] F

* * *

System: MDA-N
Assay: NCI tumour cell line growth inhibition, 48 h
Activity calls are given as the source filed them. Cut-off read from the data, not from the text of the source: active = GI50 up to about 1.1 µM and inactive = higher.
Log the outcome using a class from true for active, false for inactive

Solved cases below.
CN(C)CCn1c(=O)c2ccc(NCCCN(C)CCCNc3ccc4c(=O)n(CCN(C)C)c(=O)n5c6ccc(O)cc6c(=O)c3c45)c3c(=O)c4cc(O)ccc4n(c1=O)c23; true
COC(=O)C(Cc1ccccc1)OC(=O)C(N)CC(=O)O (centres undefined); false
CN(C)/C=N/NC(=O)/C(C#N)=C/N(C)C; false

Here is another molecule to look at.
[Q] Tell me the recorded outcome of this test for NNC1=N/C(=C\c2ccco2)C(=O)N1 .
[A] false

* * *

compounds and their reported GI50
Test system: ACHN
Experiment: NCI tumour cell line growth inhibition, 48 h
Active and inactive are the calls of the source. No stated cut-off is given here; in the data, active = GI50 up to about 1.1 µM and inactive = higher.

Take a look at these entries with their results.
O=C1NC(NNc2ccccc2)=N/C1=C\c1ccco1; 13.2 µM (inactive)
O=C1CSC(/C=C/c2ccccc2)N1c1ccc(-n2c(-c3ccccc3)nc3ccccc3c2=O)cc1 (stereo not drawn); > 10 µM (inactive)

[Q] # assay system ACHN: give GI50 of COC(=O)c1nc2c(C)c(O)c(O)c([C@H](C)CCC=C(C)C)c2o1
[A] 22.6 µM (inactive)

* * *

System: DU-145
Test: NCI tumour cell line growth inhibition, 48 h
Active and inactive are the calls of the source. No stated cut-off is given here; in the data, active = GI50 up to about 1.1 µM and inactive = higher.
Log the outcome using a class from T = active, F = inactive

COc1cccc(/N=C/c2cc(OC)c(OC)c(OC)c2)c1; F

[Q] Tell me the recorded outcome of this test for COc1cc(/C=C\c2ccc(SC)cc2)cc(OC)c1OC .
[A] T

[Q] Tell me the recorded outcome of this test for Cc1cc(C)nc(NC(P(=O)(O)O)P(=O)(O)O)n1 .
[A] F

[Q] Tell me the recorded outcome of this test for COc1ccc(-c2cc(-c3ccc(Nc4ccnc5cc(C(F)(F)F)ccc45)cc3)[nH]c(=O)c2C#N)c2ccccc12 .
[A] F

[Q] Tell me the recorded outcome of this test for Cn1c(=O)c2nc(CCCCc3nc4ccccc4[nH]3)[nH]c2n(C)c1=O .
[A] F

[Q] Tell me the recorded outcome of this test for COn1oc(=O)c2ccccc21 .
[A] F

* * *

Tested on: MOLT-4
Experiment: NCI tumour cell line growth inhibition, 48 h
Activity calls are given as the source filed them. No stated cut-off is given here; in the data, active = GI50 up to about 1.1 µM and inactive = higher.
Log the outcome using a class from active, inactive

[Q] Tell me the recorded outcome of this test for CC(=O)O[C@H]1C(=O)[C@@]2(C)[C@H]([C@H](OC(=O)c3ccccc3)[C@]3(O)C[C@H](OC(=O)[C@H](O)[C@@H](NC(=O)c4ccccc4)c4cccc(N(C)C)c4)C(C)=C1C3(C)C)[C@]1(OC(C)=O)CO[C@@H]1C[C@@H]2O .
[A] active

[Q] Tell me the recorded outcome of this test for O=c1c2ccccc2sc2cccc(NCCCN3CCN(CCCNc4cccc5sc6ccccc6c(=O)c45)CC3)c12 .
[A] inactive

[Q] Tell me the recorded outcome of this test for CCOC(=O)c1cc(Br)c(-c2onc(C)c2Br)[nH]1 .
[A] inactive
